Reference for the values: the RNAGym collection of RNA variant scans (doi:10.1073/pnas.2313332121)

B1: TPR 5TU (parent)
chain: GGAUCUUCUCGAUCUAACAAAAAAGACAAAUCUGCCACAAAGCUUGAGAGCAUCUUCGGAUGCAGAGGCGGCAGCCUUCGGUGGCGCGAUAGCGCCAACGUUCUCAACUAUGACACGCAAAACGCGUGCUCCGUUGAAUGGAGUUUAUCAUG

- Variants of: B1
- test method notes: polymerase ribozyme fitness, log enrichment relative to wild type (log ratio); higher = more active; in vitro selection for triplet polymerase activity
Variants at the floor of the assay were thinned out.
Would you please tag the item Condition met when its polymerase ribozyme fitness (log ratio) is -2 or above, and Condition not met when it is below?

| mutation list | class assignment |
| --- | --- |
| C14U A64G A91U C105G | Condition not met |
| G11U C27U A29C C75U G83C G126U | Condition not met |
| A41C C63G G70C C85U A97C U144A | Condition not met |
| A22C U53A C57U G100A A119G A142C G152A | Condition not met |
| A20U G42U U55G G62A | Condition not met |
| A20G U33C C87U A89G U151G | Condition not met |
| C18A A29U G136A | Condition not met |
| C76G G94C | Condition not met |
| C14U C79A G84A A150G | Condition not met |
| A12G G48C U56A G70A G83U | Condition not met |
| A73C A107G | Condition not met |
| C54G G65U A73U C87A A106U G140A G143A | Condition not met |
| A17U A73U C93U A120G | Condition met |
| U82A A107U | Condition not met |
| U55G G58C G59U G67C U78A C95U A113G | Condition not met |
| G48C G126U | Condition met |
| G94A U146G | Condition met |
| U9G A49U C85U | Condition not met |
| G34A C57G A66U A115U U134C A142U U148G | Condition not met |
| C8U A17G G84U G133C | Condition not met |
| C14U C35A A40G G84A | Condition not met |
| C10A A106G G126U | Condition not met |
| U13A C14A A60G C93U | Condition not met |
| A30G A91G | Condition not met |
| U7A C79G G94C C114A C118G | Condition not met |
| U56A A89G C99A | Condition met |
| A73G C125G | Condition met |
| C14U A47C G50A G70A U77C C85A C125G C132A A142U | Condition not met |
| C38U C51U U56A G94U C105A A121U | Condition not met |
| A3C C43U U53A U61G U101G U139A | Condition not met |
| C10G C54U G62C G86U U146C | Condition not met |
| G50C A52C C105A C125A A142C U146A | Condition not met |
| A3C A52C U55A C57A G81A G94C | Condition not met |
| A21G U33G A52C A64C C75G C93G U151G | Condition not met |
| C18U C93U | Condition met |
| U90G G94U A106U | Condition not met |
| C79A A106G U146G | Condition not met |
| U55A U56A A106C | Condition met |
| C32G C85U | Condition not met |
| C10G C18U C85G G133U A138G | Condition not met |
| G11C G48A A52G C96U A113G C118U G141U A142C U151G | Condition not met |
| A3U C93G | Condition not met |
| C54U A64C U90G U139G G140A | Condition not met |
| A21U A26C | Condition met |
| U13G A28G U53A A64U G141U U145G G152A | Condition not met |
| A12U A37G C69G A122C G126A A150G | Condition not met |
| U61A A73G G80U | Condition not met |
| A40C C85A | Condition not met |
| C69U C95U | Condition met |
| G50U C96U C99A C103G G124C C129A U144G | Condition not met |
| C36A U56G G141U | Condition not met |
| A3G G86A | Condition met |
| U4C G11U G42C G48A U53G C57G G81U C85U | Condition not met |
| C51G A73U | Condition not met |
| A24G C54A A106G | Condition not met |
| C54U U56A G81A C95A U101C | Condition met |
| G83U A115C | Condition met |
| C75A C96U A97C | Condition not met |
| A122C C149U | Condition met |
| A3G A17U C85A A106G A107U C118G U134A A142G C149U | Condition not met |
| C8G C79A A91U A107C G124C U144C | Condition not met |
| A17U U44A C54G U55G G62C C87A C99U A150G G152C | Condition not met |
| U61A C129U | Condition not met |
| A12G A24U U53A U82G G84A A89U | Condition not met |
| A60G U90G U145A | Condition not met |
| U31A A47C U56A C87U | Condition met |
| U55A G59A | Condition met |
| A3C C76U C96A | Condition met |
| C5G A12U U31A A41U C54U U56A G88A U127C A137C G141A | Condition not met |
| C10G U53A G83U A91U A97G C103A | Condition not met |
| G74A C85G | Condition not met |
| A12C G34U G50U G88C A98U C125A | Condition not met |
| A22U A29G G70A | Condition not met |
| C8G A17G G25A C54G G71C C87U U90A C96U C132U | Condition not met |
| A3C U101G C105U A138C | Condition not met |
| A12G G25C A122G G136A | Condition not met |
| U55G G71U | Condition met |
| C85G G124A G133A | Condition not met |
| C72U A147C | Condition met |
| C96A C132G | Condition not met |
| U13A A41C A91U C96U | Condition not met |
